- SYSTEM NAME: full length MPS1 (Homo sapiens (Human), UniProt P33981)
- Sequence (P33981 whole entry): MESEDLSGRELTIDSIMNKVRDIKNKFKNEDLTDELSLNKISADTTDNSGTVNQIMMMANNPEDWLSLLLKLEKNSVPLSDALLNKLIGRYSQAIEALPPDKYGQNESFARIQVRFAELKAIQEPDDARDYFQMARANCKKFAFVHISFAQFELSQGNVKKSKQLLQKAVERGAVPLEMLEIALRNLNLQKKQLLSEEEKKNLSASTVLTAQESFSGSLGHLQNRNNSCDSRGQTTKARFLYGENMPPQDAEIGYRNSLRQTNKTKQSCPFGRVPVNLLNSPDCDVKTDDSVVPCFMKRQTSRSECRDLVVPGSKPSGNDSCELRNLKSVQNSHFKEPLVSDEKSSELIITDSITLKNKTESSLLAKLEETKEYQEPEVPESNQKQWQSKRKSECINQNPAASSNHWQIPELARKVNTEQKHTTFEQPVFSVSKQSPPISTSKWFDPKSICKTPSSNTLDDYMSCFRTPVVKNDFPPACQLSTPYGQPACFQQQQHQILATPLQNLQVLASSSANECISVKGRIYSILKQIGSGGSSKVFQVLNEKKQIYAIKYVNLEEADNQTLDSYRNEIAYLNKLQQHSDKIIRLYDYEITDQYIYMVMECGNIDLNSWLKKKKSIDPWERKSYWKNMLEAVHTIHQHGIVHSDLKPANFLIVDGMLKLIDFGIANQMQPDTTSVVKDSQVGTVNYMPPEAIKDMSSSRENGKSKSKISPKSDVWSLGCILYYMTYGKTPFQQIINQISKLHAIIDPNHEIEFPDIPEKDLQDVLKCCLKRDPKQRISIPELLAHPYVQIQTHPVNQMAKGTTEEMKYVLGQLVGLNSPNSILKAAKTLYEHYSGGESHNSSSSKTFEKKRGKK
MEASUREMENT NAME: IC50 (nM)
One number for each entry, in nM.

Request: Provide value of IC50 for this record tested with full length MPS1 (Homo sapiens (Human), UniProt P33981): COc1cc(-c2cnn(C)c2)ccc1Nc1ncc2ccnc(N3CCCC3C)c2n1 (stereo not shown)
Result: 6
